- Test system: SK-OV-3 ovarian
- experiment: NCI tumour cell line growth inhibition, 48 h
reported property: TGI

Examples with answers:
O=C(NNC(=S)NC1CCCCC1)C12CC3CC(CC(C3)C1)C2	> 100 µM
COC(=O)C1=CC2C=CC(C1C(=O)OC)C1C(C(=O)OC)=C(C(=O)OC)C(C(=O)OC)=C(C(=O)OC)C21OC (stereo unspecified)	> 100 µM
COC(=O)C1C(=O)O[C@@H](c2cc(OC)c(OC)cc2OC)C1C(=O)OC (mixture of isomers)	> 100 µM
COC(=O)c1oc2c(C(=O)/C=C/c3ccc(OC)cc3)c(OCCN(C)C)ccc2c1C	17.8 µM
O=C(/C=C\c1cccc2ccccc12)c1ccc(Cl)cc1Cl	> 100 µM

For each listed entry, give its TGI.
1. COc1c(-c2ccccc2)nc2ccc(Oc3ccccc3)nn12
2. O=C(/C=C/c1ccccc1)Nc1ccccc1SCCCCl
3. COC(=O)/C=C1/OC(c2ccccc2)=C(C)C1=O
4. CN(C)N1C(=O)S/C(=C\c2ccc([N+](=O)[O-])cc2)C1=O

Response given:
1. > 100 µM
2. > 100 µM
3. 22.6 µM
4. > 100 µM

For each listed entry, give its TGI.
1. O=C1C2C3CC(C4C5C=CC(C5)C34)C2C2C3CC(C12)C1C2C=CC(C2)C31 (stereo unspecified)
2. O=C(/C=C/c1cccc([N+](=O)[O-])c1)c1ccc([N+](=O)[O-])cc1

Response given:
1. > 100 µM
2. > 100 µM

----------
- Tested on: HOP-92 NSCLC
- experiment: NCI tumour cell line growth inhibition, 48 h
Label 1 when TGI is at or above 30 µM; otherwise label 0.

Challenge: Check this compound for TGI at or above 30 µM: C#CCN(c1ccc(C(=O)N[C@@H](CCC(=O)N[C@H](CCC(=O)O)C(=O)O)C(=O)O)cc1)C1CCc2cc3nc(CO)[nH]c(=O)c3cc21 (stereo partly specified)
Response given: 1

----------
- Tested on: SR leukemia
- experiment: NCI tumour cell line growth inhibition, 48 h
Provide the recorded TGI for the entries that follow.

Examples with answers:
CCOC(=O)/C=C(/C(=O)OCC)n1ccc(=O)n(Cc2cnnn2COCCOC(C)=O)c1=O	45.7 µM
O=C(c1ccc(Cl)cc1)c1ccc(OCCCOc2ccc(C(=O)c3ccc(Cl)cc3)cc2Cl)c(Cl)c1	> 100 µM
COC(=O)C1=CC2C=CC(C1C(=O)OC)C1C(C(=O)OC)=C(C(=O)OC)C(C(=O)OC)=C(C(=O)OC)C21OC (configuration not stated)	> 100 µM

For each listed entry, give its TGI.
1. COc1ccc(-c2c3c(n(C4OC(CO)C(O)C(O)C4O)c(=S)c2C#N)CCCC3)cc1 (configuration not stated)
2. Cc1ccc2c(=O)cc(-c3ccc4ccccc4c3)[nH]c2n1
3. CCC1(c2ccc(N3C(=O)c4cc(OC)c(OC)cc4C3=O)cc2)CCC(=O)NC1=O (configuration not stated)
4. CCCCCc1c(CCCC)c(=O)[nH]c2nc(NC(=O)CCCC)ccc12
5. Clc1ccccc1-c1nnc2c(Cc3ccccc3)nc3ccccc3n12

Response given:
> 100 µM
5.59 µM
> 10 µM
> 100 µM
> 100 µM

For each listed entry, give its TGI.
1. N/N=C(/Cc1nc2ccc(C(=O)c3ccccc3)cc2[nH]c1=O)C(=O)Nc1ccc([N+](=O)[O-])cc1[N+](=O)[O-]
2. CCCCCC/C=C\CCCCCCCCCC1=C(CN2CCN(C)CC2)C(=O)C=C(OC)C1=O
3. C/C=C1/CC(C)C(C)(O)C(=O)OCC2C(O)CN3CCC(OC1=O)C23 (configuration not stated)

Response given:
["> 100 µM", "1.81 µM", "> 100 µM"]

----------
- Test system: OVCAR-3 ovarian
- experiment: NCI tumour cell line growth inhibition, 48 h
reported property: TGI

Examples with answers:
CN(C)c1c(C2OC(CO)C(O)C2O)c(=O)c1=O (stereo unspecified)	> 100 µM
Cc1cc2nc3ccccc3n2c2nc(N)ccc12	> 100 µM
COc1ccc(OC)c2c1C=CC(Br)=CC2	> 1 µM
O=C1Nc2nccnc2C(=O)N2CCC[C@@H]12	> 100 µM
Nc1c(Cl)ncnc1NCCCCCCCCCCCCNc1ncnc(Cl)c1N	8.35 µM

For each listed entry, give its TGI.
1. O=C(/C=C/c1ccccc1)Nc1ccccc1SCCCCl
2. COC1OC2COC(C)(C)OC2C(OC(C)=O)C1NC(=O)N(CCCl)N=O (stereo unspecified)
3. CN(/N=C/c1ccnc2ccccc12)c1c([N+](=O)[O-])cc([N+](=O)[O-])cc1[N+](=O)[O-]
4. COc1ccccc1/C=C/C1=NN(c2cccc(S(=O)(=O)O)c2)C2(C1)C(Cl)C(=O)N2c1nc2ccccc2s1 (stereo unspecified)

Response given:
> 92.1 µM
> 100 µM
> 100 µM
> 100 µM

For each listed entry, give its TGI.
1. COC(=O)c1cc(NC(=O)Cc2c[nH]c3ccccc23)cn1C
2. Cc1cc(C)c(-c2noc(-c3ccc(Cl)cc3)c2C2=NCCCN2)c(C)c1
3. CCOC(=O)NC(Nc1ccc(F)cc1)(C(=O)OCC)C(F)(F)F (stereo unspecified)
4. CC(=O)[C@H]1CCC2[C@@H]3CC=C4C[C@@H]([O-])CC[C@]4(C)C3CC[C@@]21C.CC(=O)[C@H]1CCC2[C@@H]3CC=C4C[C@@H]([O-])CC[C@]4(C)C3CC[C@@]21C.CC(=O)[CH-]C(=O)c1ccccc1.CC(=O)[CH-]C(=O)c1ccccc1.Cl.[Ti+4] (stereo partly specified)

Response given:
["> 100 µM", "> 100 µM", "> 100 µM", "> 100 µM"]

For each listed entry, give its TGI.
1. CC(C)CC(N)C(=O)Nc1ccc2ccccc2c1 (stereo unspecified)
2. CC(=O)OCC(=O)OC[C@H](OCc1ccccc1)[C@@H]1[C@H](OC(C)=O)C(=O)N1Cc1ccccc1
3. O=C(NNC(=S)NC1CCCCC1)C12CC3CC(CC(C3)C1)C2

Response given:
["> 100 µM", "> 100 µM", "> 100 µM"]

----------
- Test system: SK-MEL-28 melanoma
- experiment: NCI tumour cell line growth inhibition, 48 h
Provide the recorded TGI for the entries that follow.

For each listed entry, give its TGI.
1. CCN(CC)CCN(C)c1ccc(CO)c2c1C(=O)c1ccccc1S2=O (stereo not drawn)
2. O=C(c1ccc(Cl)cc1)c1ccc(OCCCOc2ccc(C(=O)c3ccc(Cl)cc3)cc2Cl)c(Cl)c1
3. CC1C2C=C(O)C(=O)C(C2=O)C1c1ccccc1 (stereo not drawn)

Response given:
["10.2 µM", "> 100 µM", "> 100 µM"]

----------
- Test system: M14 melanoma
- experiment: NCI tumour cell line growth inhibition, 48 h
Provide the recorded TGI for the entries that follow.

Examples with answers:
CC(C)(Cl)C(Br)CCC(Br)(CCl)C(Cl)CBr (stereo not given)	> 10 µM
COc1c(C(=O)NCCN(CCNC(=O)c2cccc(-c3cccc(C(=O)N(C)C)c3OC)c2OC)CCNC(=O)c2cccc(-c3cccc(C(=O)N(C)C)c3OC)c2OC)cccc1-c1cccc(C(=O)N(C)C)c1OC	> 100 µM
O=C1Nc2nccnc2C(=O)N2CCC[C@@H]12	> 100 µM
CCC1(c2ccc(N3C(=O)c4cc(OC)c(OC)cc4C3=O)cc2)CCC(=O)NC1=O (stereo not given)	> 10 µM

# input for lookup
Challenge: State the recorded TGI for this entry: CSc1nc2c(c(=O)n1C)CN(C1CCCCC1)C(=O)C(c1ccccc1)N2 (stereo not given)
Response given: > 100 µM

----------
Provide the recorded TGI for the entries that follow.
- Test system: HT29 colon
- experiment: NCI tumour cell line growth inhibition, 48 h

Examples with answers:
NC1=NN(c2ccccc2)C(=O)C1C(=O)C(=O)Nc1ccc(Cl)c(Cl)c1 (stereo unspecified)	> 100 µM
COc1cc(/C=N/N=C(\N)NO)c(Cl)cc1O	> 100 µM
CC(=O)OCC1OC(n2c3c(c(-c4ccc(Cl)cc4)c(C#N)c2=S)CCCC3)C(OC(C)=O)C(OC(C)=O)C1OC(C)=O (stereo unspecified)	> 100 µM
Nc1ccccc1C(=O)CCC1C(=O)NC(=S)NC1=O	> 100 µM
O=C1c2ccccc2C2CCC1c1ccccc12 (stereo unspecified)	> 100 µM

For each listed entry, give its TGI.
1. C=CC1CN(C(=O)OCC)N(C(=O)OCC)C1CCc1ccccc1 (stereo unspecified)
2. O=C(/C=C/c1ccccc1)Nc1ccccc1SCCCCl

Response given:
> 100 µM
> 41.4 µM

----------
- Tested on: RXF 393 renal
- experiment: NCI tumour cell line growth inhibition, 48 h
reported property: TGI

For each listed entry, give its TGI.
1. O=c1c(Cl)c(Cl)cnn1CCCl
2. COC1OC2COC(C)(C)OC2C(OC(C)=O)C1NC(=O)N(CCCl)N=O (configuration not stated)
3. CCOP(=O)(OCC)C(C(=O)OC)C(=O)C(=O)Nc1cccc(O)c1 (configuration not stated)
4. S=c1ncc2c([nH]1)C1c3ccccc3C2c2ccccc21
5. Nc1nc(NCCCO)cc(=O)[nH]1
6. COc1ccc(S(=O)(=O)N(CC(=O)O)c2ccccc2)cc1
7. Cn1c2c(c3c(Cl)nncc31)Cc1ccccc1-2

Response given:
["4.74 µM", "> 100 µM", "> 100 µM", "> 100 µM", "> 100 µM", "> 100 µM", "80.7 µM"]
